These entries and their values trace back to ChEMBL document CHEMBL4359824.

Target: UniProtKB P36888
Sequence (P36888 whole entry): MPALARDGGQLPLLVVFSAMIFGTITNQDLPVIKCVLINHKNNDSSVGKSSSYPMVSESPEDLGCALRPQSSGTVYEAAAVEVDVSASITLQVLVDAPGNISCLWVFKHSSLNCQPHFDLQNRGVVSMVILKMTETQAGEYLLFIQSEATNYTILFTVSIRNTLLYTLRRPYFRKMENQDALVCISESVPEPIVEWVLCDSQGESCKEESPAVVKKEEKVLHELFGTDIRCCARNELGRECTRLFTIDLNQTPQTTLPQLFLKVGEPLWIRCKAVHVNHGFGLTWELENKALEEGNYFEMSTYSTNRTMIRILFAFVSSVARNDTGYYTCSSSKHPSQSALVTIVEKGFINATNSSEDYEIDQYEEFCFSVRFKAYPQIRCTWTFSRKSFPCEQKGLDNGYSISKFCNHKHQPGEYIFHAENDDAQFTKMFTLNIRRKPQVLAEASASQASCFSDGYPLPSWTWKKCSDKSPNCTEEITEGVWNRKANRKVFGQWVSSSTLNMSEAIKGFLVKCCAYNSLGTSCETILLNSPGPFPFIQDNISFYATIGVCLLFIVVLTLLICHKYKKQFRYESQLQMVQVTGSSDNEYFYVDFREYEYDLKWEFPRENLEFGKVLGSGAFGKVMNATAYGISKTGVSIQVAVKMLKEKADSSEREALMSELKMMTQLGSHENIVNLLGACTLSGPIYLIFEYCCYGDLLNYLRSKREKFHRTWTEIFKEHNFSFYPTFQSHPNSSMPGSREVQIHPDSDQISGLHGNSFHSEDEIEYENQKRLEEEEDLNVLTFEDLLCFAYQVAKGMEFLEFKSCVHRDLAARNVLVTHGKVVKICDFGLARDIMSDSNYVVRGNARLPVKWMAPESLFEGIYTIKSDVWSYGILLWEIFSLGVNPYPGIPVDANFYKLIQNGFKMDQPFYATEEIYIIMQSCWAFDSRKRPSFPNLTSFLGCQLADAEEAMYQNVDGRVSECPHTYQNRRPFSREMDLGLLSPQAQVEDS
Assay: Inhibition of wild type FLT3 (unknown origin) expressed in mouse BAF3 cells
Format: cell-based
metric: IC50 (nM)
Just the number in nM, nothing appended.

# query: IC50 of entry COc1cccc2nc(-c3cccs3)nc(NN3C(=O)C=C(C)C3=O)c12
618
